STUDY_TARGET: Peroxisome proliferator-activated receptor gamma (Homo sapiens)
Sequence (P37231 whole entry, the tested form may be a part): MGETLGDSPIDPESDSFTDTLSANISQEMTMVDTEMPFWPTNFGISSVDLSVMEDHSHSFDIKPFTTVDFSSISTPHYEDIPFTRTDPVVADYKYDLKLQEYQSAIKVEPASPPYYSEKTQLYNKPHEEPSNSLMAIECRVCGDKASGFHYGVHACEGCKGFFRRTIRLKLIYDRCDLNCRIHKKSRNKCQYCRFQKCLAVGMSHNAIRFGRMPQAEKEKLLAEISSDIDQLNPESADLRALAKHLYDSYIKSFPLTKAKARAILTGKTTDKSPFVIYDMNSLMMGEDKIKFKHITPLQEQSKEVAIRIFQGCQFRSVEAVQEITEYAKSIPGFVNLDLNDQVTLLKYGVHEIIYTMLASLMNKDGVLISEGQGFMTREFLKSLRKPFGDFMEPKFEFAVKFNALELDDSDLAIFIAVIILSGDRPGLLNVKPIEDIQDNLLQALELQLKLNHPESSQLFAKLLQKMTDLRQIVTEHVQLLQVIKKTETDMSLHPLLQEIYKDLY
ASSAY_INFO: Agonist activity at Gal4-fused human PPARgamma […] binding domain expressed in HEK293 cells by luciferase reporter gene assay
Exercise: for every item that follows, state its recorded EC50.
Answers are plain numbers, in nM.

molecule=Cc1cc(CN2Cc3ccccc3C[C@@H]2C(=O)Nc2ccc(Cl)cc2Cl)ccc1OCC(=O)O property_label=EC50 val=800

Record summary for Cc1cc(CN2CCc3ccccc3C2C(=O)Nc2ccc(Cl)cc2Cl)ccc1OCC(=O)O (racemic) : reported EC50 = 2700

====

Exercise: for every item that follows, state its recorded logD.
ASSAY_INFO: Lipophilicity, log D of the compound
Assay type: physicochemical
EXPERIMENTAL_SETUP: octanol/water
Numbers only.

molecule="Cc1cc(CN2Cc3ccccc3C2C(=O)Nc2ccc(Cl)cc2Cl)ccc1OCC(=O)O (racemic)" property_label=logD val=2.6
molecule=Cc1cc(CN2Cc3ccccc3C[C@H]2C(=O)Nc2ccc(Cl)cc2Cl)ccc1OCC(=O)O property_label=logD val=2.4

Record summary for Cc1cc(CN2CCc3ccccc3C2C(=O)Nc2ccc(Cl)cc2Cl)ccc1OCC(=O)O (racemic) : reported logD = 2.6

====

STUDY_TARGET: Peroxisome proliferator-activated receptor delta (Homo sapiens, UniProt Q03181)
Sequence (Q03181 whole entry): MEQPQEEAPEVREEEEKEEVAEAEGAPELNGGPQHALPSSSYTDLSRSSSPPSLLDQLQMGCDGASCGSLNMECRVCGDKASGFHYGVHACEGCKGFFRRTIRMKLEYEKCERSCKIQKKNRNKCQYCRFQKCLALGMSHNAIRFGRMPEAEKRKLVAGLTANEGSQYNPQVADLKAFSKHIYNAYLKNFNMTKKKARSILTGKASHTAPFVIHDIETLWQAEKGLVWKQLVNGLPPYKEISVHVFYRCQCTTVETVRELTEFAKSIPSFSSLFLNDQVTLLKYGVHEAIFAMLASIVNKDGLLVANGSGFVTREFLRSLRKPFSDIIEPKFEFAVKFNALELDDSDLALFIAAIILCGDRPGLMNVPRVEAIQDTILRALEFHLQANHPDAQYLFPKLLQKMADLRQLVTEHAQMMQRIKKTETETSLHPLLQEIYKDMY
ASSAY_INFO: Agonist activity at Gal4-fused human PPARdelta […] binding domain expressed in HEK293 cells by luciferase reporter gene assay
Assay type: cell-based
Exercise: for every item that follows, state its recorded pEC50.
One number for each entry, as −log10 of the molar value.

compound=Cc1cc(CN2Cc3ccccc3C[C@@H]2C(=O)Nc2ccc(Cl)cc2Cl)ccc1OCC(=O)O study_target="Peroxisome proliferator-activated receptor delta (Homo sapiens, UniProt Q03181)" property_label=pEC50 val=9.30
compound="Cc1cc(CN2Cc3ccccc3C2C(=O)Nc2ccc(Cl)cc2)ccc1OCC(=O)O (stereo not drawn)" study_target="Peroxisome proliferator-activated receptor delta (Homo sapiens, UniProt Q03181)" property_label=pEC50 val=5.60

Record summary for Cc1cc(CN2Cc3ccccc3C2C(=O)Nc2cc(Cl)ccc2Cl)ccc1OCC(=O)O (stereo not drawn) : reported pEC50 = 6.49

====

STUDY_TARGET: Peroxisome proliferator-activated receptor delta (Homo sapiens)
Sequence (Q03181 whole entry): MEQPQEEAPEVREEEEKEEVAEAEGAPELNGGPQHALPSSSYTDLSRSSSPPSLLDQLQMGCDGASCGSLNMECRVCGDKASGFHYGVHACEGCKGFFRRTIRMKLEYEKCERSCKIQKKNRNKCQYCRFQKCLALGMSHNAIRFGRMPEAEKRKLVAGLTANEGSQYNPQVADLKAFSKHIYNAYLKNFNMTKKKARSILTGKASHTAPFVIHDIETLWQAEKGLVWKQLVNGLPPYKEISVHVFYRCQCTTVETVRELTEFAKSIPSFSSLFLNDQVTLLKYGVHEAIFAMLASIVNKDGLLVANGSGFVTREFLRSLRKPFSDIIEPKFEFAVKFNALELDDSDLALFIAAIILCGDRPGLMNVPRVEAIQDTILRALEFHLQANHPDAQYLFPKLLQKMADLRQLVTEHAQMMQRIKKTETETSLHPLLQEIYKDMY
ASSAY_INFO: Agonist activity at Gal4-fused human PPARdelta […] binding domain expressed in HEK293 cells by luciferase reporter gene assay
Format: cell-based
PROPERTY_LABEL: pEC50
One number for each entry, as −log10 of the molar value.

// below: answered molecules
molecule="Cc1cc(CN2Cc3ccccc3C2C(=O)Nc2ccc(Cl)cc2Cl)ccc1OCC(=O)O (racemic)" property_label=pEC50 val=7.60
molecule="Cc1cc(CN2Cc3ncccc3CC2C(=O)Nc2ccc(Cl)cc2Cl)ccc1OCC(=O)O (racemic)" property_label=pEC50 val=6.30
molecule="Cc1cc(CN2CCC(C(=O)Nc3ccc(Cl)cc3Cl)C2)ccc1OCC(=O)O (centres undefined)" property_label=pEC50 val=6.00
molecule=Cc1cc(CN2Cc3ccccc3C[C@H]2C(=O)Nc2ccc(Cl)cc2Cl)ccc1OCC(=O)O property_label=pEC50 val=8.30
molecule="Cc1cc(CN2CCCC2C(=O)Nc2ccc(Cl)cc2Cl)ccc1OCC(=O)O (centres undefined)" property_label=pEC50 val=5.80

Look at each molecule and report its pEC50.
1. Cc1cc(CN2CCc3ccccc3C2C(=O)Nc2ccc(Cl)cc2Cl)ccc1OCC(=O)O (racemic)
2. Cc1cc(CN2Cc3cccnc3CC2C(=O)Nc2ccc(Cl)cc2Cl)ccc1OCC(=O)O (racemic)

A)
1. 8.00
2. 5.70

====

Exercise: for every item that follows, state its recorded EC50.
STUDY_TARGET: Peroxisome proliferator-activated receptor alpha (Homo sapiens)
Sequence (Q07869 whole entry, the tested form may be a part): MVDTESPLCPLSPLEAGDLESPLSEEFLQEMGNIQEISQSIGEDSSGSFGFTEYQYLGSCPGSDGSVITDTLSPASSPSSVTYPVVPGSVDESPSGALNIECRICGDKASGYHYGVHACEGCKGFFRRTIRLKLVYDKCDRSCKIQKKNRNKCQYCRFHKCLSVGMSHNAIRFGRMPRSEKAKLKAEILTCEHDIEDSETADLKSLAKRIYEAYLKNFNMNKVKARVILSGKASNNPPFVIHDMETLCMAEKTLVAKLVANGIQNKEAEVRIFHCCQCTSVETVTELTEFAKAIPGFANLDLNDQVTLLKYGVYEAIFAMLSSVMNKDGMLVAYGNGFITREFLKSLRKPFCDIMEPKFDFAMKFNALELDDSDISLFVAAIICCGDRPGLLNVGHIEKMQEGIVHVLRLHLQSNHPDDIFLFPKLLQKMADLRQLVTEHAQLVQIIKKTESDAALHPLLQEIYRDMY
ASSAY_INFO: Agonist activity at Gal4-fused human PPARalpha […] binding domain expressed in HEK293 cells by luciferase reporter gene assay
Answers are plain numbers, in nM.

compound=Cc1cc(CN2Cc3ccccc3C[C@H]2C(=O)Nc2ccc(Cl)cc2Cl)ccc1OCC(=O)O val=2500
compound="Cc1cc(CN2CCc3ccccc3C2C(=O)Nc2ccc(Cl)cc2Cl)ccc1OCC(=O)O (racemic)" val=6300

Record summary for Cc1cc(CN2Cc3ccccc3C[C@@H]2C(=O)Nc2ccc(Cl)cc2Cl)ccc1OCC(=O)O : reported EC50 = 1250
